# Species: Homo sapiens
# Assay Overview: Selectivity index, ratio Ki for human D3 receptor to Ki for human D2 receptor using [3H]7-OH-DPAT displacement assay
Classify as follows. Reported Ratio Ki greater than or equal to 8: met. Reported Ratio Ki below: not met.

Below are worked cases with known answers.
input: Does the compound `CN(CCCCNC(=O)c1ccc2c(c1)Cc1ccccc1-2)[C@@H]1Cc2cccc3[nH]c(=O)n(c23)C1` have recorded Ratio Ki that is 8 or more?
output: not met

input: Does the compound `N[C@@H]1Cc2cccc3[nH]c(=O)n(c23)C1` have recorded Ratio Ki that is 8 or more?
output: met

input: Does the compound `CCCN(CCC)[C@@H]1Cc2cccc3nc(O)n(c23)C1` have recorded Ratio Ki that is 8 or more?
output: not met

input: Does the compound `CCCCn1c(=O)n2c3c(cccc31)C[C@@H](NC)C2` have recorded Ratio Ki that is 8 or more?
output: met

input: Does the compound `CCCN(CCC)[C@@H]1Cc2cccc3c2n(c(=O)n3CCC)C1` have recorded Ratio Ki that is 8 or more?
output: not met

input: Does the compound `CCCN(C)[C@@H]1Cc2cccc3[nH]c(=O)n(c23)C1` have recorded Ratio Ki that is 8 or more?
output: met

---
input: Does the compound `CCCN[C@@H]1Cc2cccc3c2n(c(=O)n3CCC)C1` have recorded Ratio Ki that is 8 or more?
output: not met

input: Does the compound `CCCn1c(=O)n2c3c(cccc31)C[C@@H](NC)C2` have recorded Ratio Ki that is 8 or more?
output: not met

###

# Experimental System: UniProt:P35462
# Assay Overview: Displacement of [3H]N-methylspiperone from human D3 receptor transfected in HEK293 cells measured after 60 mins by liquid scintillation counter
# Format: cell-based
Endpoint: log10(Ki) (log10 of the value in µM)
Scale: decimal log of Ki, Ki in µM.

// solved cases for log10(Ki) follow
input: # log10(Ki) lookup, item `CN(CCCCNC(=O)c1ccc2c(c1)Cc1ccccc1-2)[C@@H]1Cc2cccc3[nH]c(=O)n(c23)C1`
output: 0.04

input: # log10(Ki) lookup, item `CCCN(CCC)[C@@H]1Cc2cccc3c2n(c(=O)n3CCC)C1`
output: -2.22

input: # log10(Ki) lookup, item `CCCN[C@@H]1Cc2cccc3nc(O)n(c23)C1`
output: -0.39

---
input: # log10(Ki) lookup, item `CCCCn1c(=O)n2c3c(cccc31)C[C@@H](NC)C2`
output: -1.99

input: # log10(Ki) lookup, item `CN[C@@H]1Cc2cc(C#N)cc3[nH]c(=O)n(c23)C1`
output: 1.43

###

# Experimental System: D(2) dopamine receptor (Homo sapiens, UniProt P14416)
# Sequence (P14416 whole entry): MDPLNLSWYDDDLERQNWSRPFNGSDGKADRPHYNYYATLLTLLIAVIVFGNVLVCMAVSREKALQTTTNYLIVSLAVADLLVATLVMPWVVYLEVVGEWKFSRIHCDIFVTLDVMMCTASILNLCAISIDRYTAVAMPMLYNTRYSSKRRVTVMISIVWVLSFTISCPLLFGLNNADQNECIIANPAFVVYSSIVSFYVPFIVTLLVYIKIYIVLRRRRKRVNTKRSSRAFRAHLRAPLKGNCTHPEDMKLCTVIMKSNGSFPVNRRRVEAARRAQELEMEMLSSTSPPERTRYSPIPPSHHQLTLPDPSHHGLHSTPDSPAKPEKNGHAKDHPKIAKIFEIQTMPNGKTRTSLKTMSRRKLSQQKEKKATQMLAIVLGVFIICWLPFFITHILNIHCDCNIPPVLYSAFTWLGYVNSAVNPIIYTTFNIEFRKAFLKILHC
# Assay Overview: biochemical
# Format: cell-based, HEK293
pKi: −log10 of the molar value.
Classify as follows. Reported pKi greater than or equal to 8: yes (1). Reported pKi below: no (0).

Below are worked cases with known answers.
input: Does the molecule `CN(CCCCNC(=O)c1ccc2c(c1)Cc1ccccc1-2)[C@@H]1Cc2cccc3[nH]c(=O)n(c23)C1` have recorded pKi that is 8 or more?
output: yes (1)

input: Does the molecule `CN[C@@H]1Cc2cc(C#N)cc3[nH]c(=O)n(c23)C1` have recorded pKi that is 8 or more?
output: no (0)

---
input: Does the molecule `CCCN(CCC)[C@@H]1Cc2cccc3c2n(c(=O)n3CCC)C1` have recorded pKi that is 8 or more?
output: yes (1)

input: Does the molecule `N[C@@H]1Cc2cccc3[nH]c(=O)n(c23)C1` have recorded pKi that is 8 or more?
output: no (0)

###

# Experimental System: D(2) dopamine receptor (Homo sapiens)
# Assay Overview: biochemical
# Assay type: cell-based, HEK293
Endpoint: pKi
Here pKi is given on a logarithmic scale as minus log10 of the concentration in mol/L.

input: Lab note: need pKi for `CCCN[C@@H]1Cc2cccc3c2n(c(=O)n3CCC)C1` on D(2) dopamine receptor (Homo sapiens), anyone have it?
output: 6.06

input: Lab note: need pKi for `N[C@@H]1Cc2cccc3[nH]c(=O)n(c23)C1` on D(2) dopamine receptor (Homo sapiens), anyone have it?
output: 4.92

input: Lab note: need pKi for `CN(CCCCNC(=O)c1ccc2c(c1)Cc1ccccc1-2)[C@@H]1Cc2cccc3[nH]c(=O)n(c23)C1` on D(2) dopamine receptor (Homo sapiens), anyone have it?
output: 5.43

input: Lab note: need pKi for `CCCn1c(=O)n2c3c(cccc31)C[C@@H](NC)C2` on D(2) dopamine receptor (Homo sapiens), anyone have it?
output: 6.12

input: Lab note: need pKi for `CCCN(CCC)[C@@H]1Cc2cccc3c2n(c(=O)n3CCC)C1` on D(2) dopamine receptor (Homo sapiens), anyone have it?
output: 6.84

---
input: Lab note: need pKi for `CCCCn1c(=O)n2c3c(cccc31)C[C@@H](NC)C2` on D(2) dopamine receptor (Homo sapiens), anyone have it?
output: 6.44

input: Lab note: need pKi for `CCCN(C)[C@@H]1Cc2cccc3[nH]c(=O)n(c23)C1` on D(2) dopamine receptor (Homo sapiens), anyone have it?
output: 5.93

###

# Experimental System: D(3) dopamine receptor (Homo sapiens, UniProt P35462)
# Sequence (P35462 whole entry): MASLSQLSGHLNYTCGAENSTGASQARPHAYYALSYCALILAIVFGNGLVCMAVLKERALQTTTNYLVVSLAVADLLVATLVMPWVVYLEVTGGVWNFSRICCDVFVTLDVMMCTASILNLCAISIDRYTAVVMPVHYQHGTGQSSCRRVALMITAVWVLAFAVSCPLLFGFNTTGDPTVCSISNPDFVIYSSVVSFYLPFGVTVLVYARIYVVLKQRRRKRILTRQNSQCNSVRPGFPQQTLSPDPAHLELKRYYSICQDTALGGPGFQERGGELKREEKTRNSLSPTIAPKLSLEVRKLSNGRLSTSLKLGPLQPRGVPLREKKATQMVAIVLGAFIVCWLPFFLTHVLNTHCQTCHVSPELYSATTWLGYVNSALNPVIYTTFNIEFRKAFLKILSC
# Assay Overview: Displacement of [3H]7-OH-DPAT from human D3 receptor transfected in HEK293 cells measured after 60 mins by liquid scintillation counter
# Assay type: cell-based
Endpoint: Ki (µM)
# number only, unit µM dropped from output

// solved cases for Ki follow
input: Lab note: need Ki for `CCCN(CCC)[C@@H]1Cc2cccc3[nH]c(=O)n(c23)C1` on D(3) dopamine receptor (Homo sapiens, UniProt P35462), anyone have it?
output: 0.0271

input: Lab note: need Ki for `CN(CCCCNC(=O)c1ccc2c(c1)Cc1ccccc1-2)[C@@H]1Cc2cccc3[nH]c(=O)n(c23)C1` on D(3) dopamine receptor (Homo sapiens, UniProt P35462), anyone have it?
output: 0.0125

input: Lab note: need Ki for `N[C@@H]1Cc2cccc3[nH]c(=O)n(c23)C1` on D(3) dopamine receptor (Homo sapiens, UniProt P35462), anyone have it?
output: 3.39

---
input: Lab note: need Ki for `CN(CCCCNC(=O)c1cc2ccccc2[nH]1)[C@@H]1Cc2cccc3[nH]c(=O)n(c23)C1` on D(3) dopamine receptor (Homo sapiens, UniProt P35462), anyone have it?
output: 0.0769

input: Lab note: need Ki for `CCCCn1c(=O)n2c3c(cccc31)C[C@@H](NC)C2` on D(3) dopamine receptor (Homo sapiens, UniProt P35462), anyone have it?
output: 0.142

input: Lab note: need Ki for `CCCn1c(=O)n2c3c(cccc31)C[C@@H](NC)C2` on D(3) dopamine receptor (Homo sapiens, UniProt P35462), anyone have it?
output: 0.0995

input: Lab note: need Ki for `CCCN(C)[C@@H]1Cc2cccc3[nH]c(=O)n(c23)C1` on D(3) dopamine receptor (Homo sapiens, UniProt P35462), anyone have it?
output: 0.104

input: Lab note: need Ki for `CCCN[C@@H]1Cc2cccc3c2n(c(=O)n3CCC)C1` on D(3) dopamine receptor (Homo sapiens, UniProt P35462), anyone have it?
output: 0.0217

input: Lab note: need Ki for `CCCN(CCC)[C@@H]1Cc2cccc3c2n(c(=O)n3CCC)C1` on D(3) dopamine receptor (Homo sapiens, UniProt P35462), anyone have it?
output: 0.00339

input: Lab note: need Ki for `CCCN[C@@H]1Cc2cccc3nc(O)n(c23)C1` on D(3) dopamine receptor (Homo sapiens, UniProt P35462), anyone have it?
output: 0.0255

input: Lab note: need Ki for CN[C@@H]1Cc2cccc3[nH]c(=O)n(c23)C1 [SUMANIROLE] on D(3) dopamine receptor (Homo sapiens, UniProt P35462), anyone have it?
output: 0.546

###

Measured pEC50, listed per entry.
# Experimental System: D(3) dopamine receptor (Homo sapiens, UniProt P35462)
# Assay Overview: Agonist activity at recombinant human D3 receptor expressing in CHOp cells assessed as receptor mediated stimulation of mitogenesis measured as [3H]thymidine incorporation after 24 hrs by scintillation spectrometry
# Assay type: cell-based
Here pEC50 is given on a logarithmic scale as minus log10 of the concentration in mol/L.

// solved cases for pEC50 follow
input: Lab note: need pEC50 for `N[C@@H]1Cc2cccc3[nH]c(=O)n(c23)C1` on D(3) dopamine receptor (Homo sapiens, UniProt P35462), anyone have it?
output: 5.47

input: Lab note: need pEC50 for `CCCN(CCC)[C@@H]1Cc2cccc3c2n(c(=O)n3CCC)C1` on D(3) dopamine receptor (Homo sapiens, UniProt P35462), anyone have it?
output: 8.43

input: Lab note: need pEC50 for `CCCN(C)[C@@H]1Cc2cccc3[nH]c(=O)n(c23)C1` on D(3) dopamine receptor (Homo sapiens, UniProt P35462), anyone have it?
output: 6.83

input: Lab note: need pEC50 for `CCCN[C@@H]1Cc2cccc3c2n(c(=O)n3CCC)C1` on D(3) dopamine receptor (Homo sapiens, UniProt P35462), anyone have it?
output: 7.25

input: Lab note: need pEC50 for `CCCn1c(=O)n2c3c(cccc31)C[C@@H](NC)C2` on D(3) dopamine receptor (Homo sapiens, UniProt P35462), anyone have it?
output: 6.75

input: Lab note: need pEC50 for `CN(CCCCNC(=O)c1cc2ccccc2[nH]1)[C@@H]1Cc2cccc3[nH]c(=O)n(c23)C1` on D(3) dopamine receptor (Homo sapiens, UniProt P35462), anyone have it?
output: 7.28

input: Lab note: need pEC50 for `CCCCn1c(=O)n2c3c(cccc31)C[C@@H](NC)C2` on D(3) dopamine receptor (Homo sapiens, UniProt P35462), anyone have it?
output: 7.66

input: Lab note: need pEC50 for `CN[C@@H]1Cc2cccc3[nH]c(=O)n(c23)C1` on D(3) dopamine receptor (Homo sapiens, UniProt P35462), anyone have it?
output: 6.17

input: Lab note: need pEC50 for `CN(CCCCNC(=O)c1ccc2c(c1)Cc1ccccc1-2)[C@@H]1Cc2cccc3[nH]c(=O)n(c23)C1` on D(3) dopamine receptor (Homo sapiens, UniProt P35462), anyone have it?
output: 7.92

Next compound, pEC50 to be filled in.
input: Lab note: need pEC50 for `CCCN[C@@H]1Cc2cccc3nc(O)n(c23)C1` on D(3) dopamine receptor (Homo sapiens, UniProt P35462), anyone have it?
output: 9.09
